Entries and their protein stability index
B1: ZNF263 (parent)
chain: LLRHQRIHTGERPYKCPECGKSFS

# Variants of: B1
# PROCEDURE DETAILS: protein stability index of a GFP-peptide fusion (GPS, HEK-293T) (PSI 1-6); higher = more stable;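 note: lentivirally expressed fusions sorted by FACS into six bins by GFP to DsRed ratio, PSI derived from sequencing read proportions per bin multiplied by bin number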
# CONDITION LABEL: c terminus: a fixed tail appended
MEASURE: protein stability index

• Y14Q = 2.11
• L1G = 2.73
• L2F = 3.31
• P13C = 2.16
• R3L = 1.63
• H8G = 2.39
• S22R = 2.4
• F23H = 3.64
• R3I = 2.25
• Y14D = 2.24
• R12Q = 2.67
• R12T = 2.45
• R6V = 2.78
• C16T = 3.4
• Y14L = 2.48
• Q5K = 2.28
• H4T = 1.69
• I7V = 2.27
• C19D = 3.28
• L1D = 2.62
• H4C = 3.89
• T9R = 2.14
• H8Y = 1.59
• H8M = 2.24
• S24G = 3.65
• F23M = 1.99
• R12N = 1.59
• H4M = 1.73
• E18A = 2.25
• T9W = 1.49
• L2C = 4.89
• L2T = 2.71
• G10W = 1.69
• H8I = 1.8
• P13I = 1.87
• F23E = 2.38
• T9C = 2.19
• S22L = 1.92
• H8S = 2.61
• K21C = 2.11
• S22C = 2.37
• K21N = 2.05
• K21D = 2.38
• F23K = 2.83
• E18Q = 2.41
• P17F = 1.94
• L1V = 3.03
• E11W = 2.01
• S24N = 2.34
• T9Q = 3.1
• G20K = 2.27
• I7S = 1.91
• H4E = 2.81
• E18D = 1.96
• H4A = 2.18
• E18V = 2.15
• K15T = 1.97
• H4K = 2.2
• R6L = 2.41
• I7N = 2.1
• C19F = 2.12
• I7F = 2.79
• C19G = 3.3
• R3F = 1.58
• C19Q = 3.3
• P13H = 1.64
• E11H = 2.7
• Q5E = 3.06
• T9N = 2.07
• L2G = 2.76
• K21L = 2.77
• S22V = 2.98
• F23L = 2.14
• K21E = 2.53
• Y14W = 2.35
• Y14K = 1.59
• R3K = 2.48
• C16R = 3.74
• L1W = 2.95
• R6S = 2.51
• Q5R = 2.09
• F23D = 3.13
• G10I = 2.29
• C16E = 3.33
• R3M = 2.04
• S24Q = 3.11
• S24E = 1.88
• R12W = 1.7
• L1F = 3.5
• I7D = 3.06
• P17L = 1.91
